Target: T1, 4H4073-bA
T1 chain: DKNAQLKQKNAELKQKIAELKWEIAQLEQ
Experiment: two-hybrid library CCNG1;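 also: natural log of median RNA to DNA barcode read ratio; higher means stronger binding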
test readout: interaction score

{"binder": "DEIAQLEQEIAELKQKNAELEWKIAQLKQ [4H118-bA]", "interaction score": -0.156}
{"binder": "DKIAQLKQEIAELEQENAELKWEIAQLKQ [4H2586-bA]", "interaction score": 0.255}

[P] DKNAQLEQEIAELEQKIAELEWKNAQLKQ [4H3112-bA]
[Q] DENAQLEQENAELEQEIAELEWKIAQLKQ [4H1158-bA]
Asked: Quick check, higher interaction score between P and Q ? // return label of chosen record
Given back: Q
(Q: 2.53, P: 1.32)

Source listed as paper PMC10397247.
